assay: AUC (0 to infinity) in Sprague-Dawley rat at 25 mg/kg, po measured up to 24 hrs by HPLC analysis; assay type: ADME, organism-based; set-up: route oral, dose 25 mg/kg, time <=24; settings: in vivo
observable: AUC(0-inf) (ng·h/mL)
Reply with just the number (in ng·h/mL).

Problem: Form field: reported AUC(0-inf) of O=C(CNc1nc(N2CCCC2)nc2ccccc12)Nc1ccc2ccccc2c1
Solution: 183

====

assay: Selectivity index, ratio of CC50 for human HEK293T cells to IC50 for Influenza A virus A/WSN/33(H1N1) infected in HEK293T-Gluc cells; assay type: toxicity, cell-based; settings: read-out: Ratio CC50/IC50
observable: selectivity ratio

Example results:
| compoundSmiles | reading |
| --- | --- |
| CCN(CC)c1nc(SCC(=O)Nc2ccccc2)c2ccccc2n1 | > 13.9 |
| O=C(CNc1nc(N2CCCC2)nc2ccccc12)NCc1ccco1 | > 2.54 |
| O=C(CNc1nc(N2CCc3ccccc3C2)nc2ccccc12)NCc1ccccc1 | 4.3 |
| CCN(CC)c1nc(NCC(=O)NCc2ccccc2)c2ccccc2n1 | > 20 |
| CN1CCN(c2nc(NCC(=O)NCc3ccccc3)c3ccccc3n2)CC1 | > 8.72 |

Problem: Look at this molecule and give its reported selectivity ratio. O=C(CNc1nc(N2CCCC2)nc2ccccc12)Nc1ccccc1
Solution: 12.4

====

experiment: Selectivity index, ratio of CC50 for human HEK293T cells to IC50 for Influenza A virus A/WSN/33(H1N1) infected in HEK293T-Gluc cells; assay type: toxicity, cell-based; settings: read-out: Ratio CC50/IC50
observable: selectivity ratio
Just the number, please.

| compoundSmiles | selectivity ratio |
| --- | --- |
| O=C(CNc1nc(N2CCCC2)nc2ccccc12)Nc1ccc2ccccc2c1 | 46.5 |
| O=C(CNc1nc(N2CCc3ccccc3C2)nc2ccccc12)Nc1ccccc1 | 9.44 |

Okay, next one:
Problem: // selectivity ratio lookup, key: CCOc1ccc(NC(=O)CSc2c[nH]c3ccc(Br)cc23)cc1
Solution: 10.5

====

tested on: Influenza A virus; assay: Antiviral activity against Influenza A virus A/WSN/33(H1N1) infected in HEK293T-Gluc cells pretreated for 2 hrs followed by viral infection and measured after 24 hrs by Gaussia luciferase reporter gene assay; format: functional, organism-based; conditions: A/WSN/1933(H1N1), HEK-293T
observable: pIC50
// pIC50 here means minus log10 of the molar concentration (mol/L)

Would you please look over these solved cases?
| compoundSmiles | targetEntity | observable | reading |
| --- | --- | --- | --- |
| O=C(CNc1nc(N2CCOCC2)nc2ccccc12)NCc1ccccc1 | Influenza A virus | pIC50 | 5.42 |
| O=C(CNc1nc(N2CCCC2)nc2ccccc12)Nc1ccccc1 | Influenza A virus | pIC50 | 5.73 |
| CN1CCN(c2nc(NCC(=O)NCc3ccccc3)c3ccccc3n2)CC1 | Influenza A virus | pIC50 | 4.94 |
| O=C(COc1cccc2ccccc12)Nc1ccc(F)cc1 | Influenza A virus | pIC50 | 5.28 |
| CCN(CC)c1nc(SCC(=O)Nc2ccccc2)c2ccccc2n1 | Influenza A virus | pIC50 | 5.14 |
| O=C(CNc1nc(N2CCc3ccccc3C2)nc2ccccc12)Nc1ccccc1 | Influenza A virus | pIC50 | 5.41 |

In the following, a different compound is considered.
Problem: Look up pIC50: O=C(CNc1nc(N2CCCC2)nc2ccccc12)Nc1ccc2ccccc2c1
Solution: 5.89
